assay: chemical genetic growth profiling, strain panel (AID 1159580);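 note: tested at 20 µM; growth read once vehicle control cultures reached saturation at 30 °C; 1 = growth at the plate median or of vehicle wells; lower values mean less growth of the strain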; details: S. cerevisiae deletion strains, growth OD, locus YER167W, strain BCK2, active compounds read low
Among all 5,500 compounds or so, about 2,000 (36%) were called active. Not shown: some 18% with an inconclusive outcome. This is one part of the list.
Each item that follows carries a reported normalized growth.
READOUT KIND: normalized growth

>>> measured("NCC(N)C(=O)c1ccccc1 (stereo not given)")
1.01
>>> measured("CN(C)CCCN1c2ccccc2Sc2ccc(Cl)cc21")
1.01
>>> measured("CC(=O)Oc1ccc(/C=C/c2cc(OC(C)=O)cc(OC(C)=O)c2)cc1")
0.991
>>> measured("CC(=O)Oc1ccc(O)cc1")
0.976
>>> measured("CN(C)C1C(=O)C(C(N)=O)=C(O)C2(O)C(=O)C3=C(O)c4c(O)ccc(Cl)c4C(C)(O)C3CC12 (stereo not given)")
0.988
>>> measured("CC(=O)Oc1ccc(C(c2ccc(OC(C)=O)cc2)c2ccccn2)cc1")
1
>>> measured("CC(CCc1ccccc1)NCC(O)c1ccc(O)c(C(N)=O)c1 (stereo not given)")
1.02
>>> measured("NNCc1cccc(O)c1")
0.99
>>> measured("CC(C)c1ccc2c(c1)CCC1[C@](C)(CN)CCC[C@]21C (stereo not given in full)")
0.661
>>> measured("NS(=O)(=O)c1cc2c(cc1Cl)NC(CSCc1ccccc1)=NS2(=O)=O")
1
>>> measured("CC(=O)Oc1cccc(O)c1")
1
>>> measured("NC(=O)NC(=O)Cc1ccccc1")
1
>>> measured("CN(C)CCCN1c2ccccc2Sc2ccccc21")
1.01
>>> measured("CC(C)c1ccc2c(c1)CCC1C(C)(C(N)=O)CCCC21C (stereo not given)")
0.898
>>> measured("CC12CCC3C(CC3(C)C)C(C)(CCC1=O)O2 (stereo not given)")
1
>>> measured("O=C(OCc1ccccc1)c1ccccc1")
0.942
>>> measured("C[n+]1ccccc1/C=N/O")
1.01
>>> measured("Oc1cccc(O)c1")
1.01
>>> measured("CC1(C)CC2C1CC[C@]1(CBr)CCC3C(CC(=O)O)C(=O)O[C@@]32C1 (stereo not given in full)")
0.993
>>> measured("CC(=O)O[C@H]1CC[C@@]2(C)C(=CC(=O)C3C4CCC(C(C)CCCC(C)C)[C@@]4(C)CCC32)C1 (stereo not given in full)")
1.01
>>> measured("CC(=O)OCC(=O)[C@@]1(O)[C@H](C)CC2C3CCC4=CC(=O)C=C[C@]4(C)[C@@]3(F)[C@@H](O)C[C@@]21C (stereo not given in full)")
1.01
>>> measured("O=C(O)C1=CCCNC1")
0.991
>>> measured("CC(N=C(NC#N)Nc1ccncc1)C(C)(C)C (stereo not given)")
0.996
>>> measured("CC[N+](C)(C)c1cccc(O)c1")
0.995
>>> measured("CCN(CC)CCOC(=O)C(c1ccccc1)C1CCCCC1 (stereo not given)")
1.01
